- target: human IL-6 (human, UniProt P05231 30-212)
- Sequence (P05231 30-212 limits assumed): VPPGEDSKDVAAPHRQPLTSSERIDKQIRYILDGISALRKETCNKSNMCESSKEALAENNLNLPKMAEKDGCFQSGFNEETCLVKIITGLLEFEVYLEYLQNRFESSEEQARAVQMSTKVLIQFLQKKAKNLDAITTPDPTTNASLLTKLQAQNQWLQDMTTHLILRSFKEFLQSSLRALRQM
- experiment notes: SPR Biacore, supernatant, Protein A capture, 37 C
assay metric: koff (s⁻¹)

{"columns": ["binder", "value unit", "reported result"],
 "data": [
  ["Anti-IL-6 antibody, heavy chain S35H, G66D, Q99K / light chain WT (antibody, IgG1, V domains shown, IgG1; variable domains only) VH: EVQLVESGGGLVQPGGSLRLSCAASGFTFSPFAMHWVRQAPGKGLEWVAKISPGGSWTYYSDTVTDRFTFSLDTSKSTAYLQMNSLRAEDTAVYYCARKLWGYYALDIWGQGTLVTVSS VL: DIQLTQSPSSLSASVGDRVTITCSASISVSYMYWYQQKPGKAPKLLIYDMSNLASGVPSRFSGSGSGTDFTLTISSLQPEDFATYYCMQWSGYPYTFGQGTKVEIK", "s⁻¹", 0.00333],
  ["Anti-IL-6 antibody, heavy chain S35H, G66D, Q99A / light chain M32L, M50D, N52S, M88Q (antibody, IgG1, V domains shown, IgG1; variable domains only; VL is variant III) VH: EVQLVESGGGLVQPGGSLRLSCAASGFTFSPFAMHWVRQAPGKGLEWVAKISPGGSWTYYSDTVTDRFTFSLDTSKSTAYLQMNSLRAEDTAVYYCARALWGYYALDIWGQGTLVTVSS VL: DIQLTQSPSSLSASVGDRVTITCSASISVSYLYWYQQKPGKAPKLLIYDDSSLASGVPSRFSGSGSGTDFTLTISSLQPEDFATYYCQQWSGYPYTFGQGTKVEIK", "s⁻¹", 0.0045],
  ["Anti-IL-6 antibody, heavy chain S35H, G66D, L100K / light chain M32L, M50D, N52S, M88Q (antibody, IgG1, V domains shown, IgG1; variable domains only; VL is variant III) VH: EVQLVESGGGLVQPGGSLRLSCAASGFTFSPFAMHWVRQAPGKGLEWVAKISPGGSWTYYSDTVTDRFTFSLDTSKSTAYLQMNSLRAEDTAVYYCARQKWGYYALDIWGQGTLVTVSS VL: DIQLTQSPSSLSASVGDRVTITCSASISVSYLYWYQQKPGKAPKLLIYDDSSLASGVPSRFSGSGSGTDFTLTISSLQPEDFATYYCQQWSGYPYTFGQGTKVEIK", "s⁻¹", 0.000822]
]}
